Exercise: state measured TGI for each of the compounds provided.
# Test system: SF-295 CNS
# Experiment Description: NCI tumour cell line growth inhibition, 48 h

Query: Quick one: TGI of CNC(=O)N(CCCC(NC(C)=O)C(=O)NCc1ccccc1)Cc1ccccc1 (stereo unspecified) ?
Reply: > 100 µM

Query: And then "Cc1cc(N(C)C)ccc1N=Nc1ccc2ncccc2c1" , what is it?
Reply: > 100 µM

Query: Another compound to check: "CC(=O)Nc1ccc(S(=O)(=O)N/N=C/c2cc(I)cc([N+](=O)[O-])c2O)cc1"
Reply: > 100 µM

Query: Would you mind doing "CCN1C2=C(SC(=S)C1=C1SC(C(=O)c3ccccc3)=C(C(=O)c3ccccc3)S1)SC(=Nc1ccccc1)C2=O" as well?
Reply: > 90.7 µM

Query: Now consider COc1cc(C2SC(N)=Nc3c2c(C)nn3C(=O)Cc2ccccc2)cc(OC)c1OC (stereo unspecified) .
Reply: > 100 µM

Query: Next up: "C#CCOCCCC(=O)O"
Reply: > 100 µM

----------
# Tested on: LXFL 529 NSCLC
# Experiment Description: NCI tumour cell line growth inhibition, 48 h
Observable: TGI

Query: Entry under review: "CC[C@@]1(O)C(=O)OCc2c1cc1n(c2=O)Cc2cc3c(OC)cccc3nc2-1" . Reported TGI?
Reply: > 23.1 µM

Query: Please give the result for Cc1ccc(NC(=O)CC2SC(=Nc3cccc(Cl)c3C)NC2=O)cc1 (stereo not drawn) too.
Reply: > 100 µM

Query: Check CC1(C)CCCC2(C)[C@@H]1CC[C@]13C[C@](C)(CC[C@@H]21)[C@@H]3CO (stereo partly drawn) too.
Reply: > 100 µM

----------
# System: MDA-MB-435
# Experiment Description: NCI tumour cell line growth inhibition, 48 h
For each of the molecules below, state its TGI.

Query: TGI lookup needed for "COCN1C(=O)[C@@H]2CCCN2C(=O)c2ccc(Cl)cc21" , thanks.
Reply: > 100 µM

Query: Now consider "CC(=O)c1cc2sc3ccccc3c2[nH]1" .
Reply: > 100 µM

Query: What do you have for "O=C(O)CSc1nc2ccccc2[nH]1" ?
Reply: > 100 µM

Query: Please give the result for "O=C(/C=C/c1cccnc1)c1ccccc1" too.
Reply: 26.7 µM

Query: Could you do the same for "COc1ccc2cc(NC(=O)Nn3cnnc3)ccc2c1" , please?
Reply: > 100 µM

Query: Quick one: "CCOC(=O)c1sc2c(c1OC(=O)c1ccc(Cl)cc1Cl)c(=O)n(-c1ccccc1)c(=S)n2-c1ccccc1"
Reply: > 100 µM

Query: Next molecule: "O=C1NC(=N[C@@H]2C[C@H]2c2ccccc2)S/C1=C\c1ccc2ncccc2c1"
Reply: 2.85 µM

Query: // same read-out, input: "Brc1ccc2[nH]cc([C@@H]3CN[C@@H](c4c[nH]c5ccc(Br)cc45)CN3)c2c1"
Reply: 11.9 µM

Query: // repeat for "COc1cc(CN(C)N2C(=O)c3cccc4cc([N+](=O)[O-])cc(c34)C2=O)cc(OC)c1OC" and report
Reply: > 100 µM

Query: Subsequent entry: "COc1ccc2c(c1)C(=O)/C(=C/c1ccccc1)C2"
Reply: > 100 µM

Query: Repeat with "Brc1ccc(N=C/C=C(\Nc2ccc(Br)cc2)C23CC4CC(CC(C4)C2)C3)cc1"
Reply: 24.7 µM

Query: And what about the molecule "O=P1(O)c2ccccc2CSCc2ccccc21" ?
Reply: > 100 µM

Query: Similarly, CCN(CC)CCC1CCCCN1CC(=O)N1c2ccccc2NC(=O)CC1C (stereo not drawn) ?
Reply: > 100 µM

Query: Similarly, "NS(=O)(=O)c1ccc(N=Nc2c(O)[nH]c3cccc(CCc4ccncc4)c23)cc1" ?
Reply: > 25 µM

Query: Param item: "CCOC(=O)Nc1nc(-c2ccccc2)c(C)s1"
Reply: > 100 µM

Query: Ok, now "COc1ccccc1NC(=S)NNC(=O)c1cc(-c2ccccc2)nc2ccccc12"
Reply: 18.5 µM

Query: For "CCOC(=O)c1csc(NC(=O)CCN2CCOCC2)n1" then?
Reply: > 100 µM

Query: // same read-out, input: "CC1(C)CC(=O)c2c(nc3c(ccc4ccccc43)c2-c2ccc(NC(=O)CCCCCCCCC(=O)Nc3ccc(-c4c5c(nc6c4ccc4ccccc46)CC(C)(C)CC5=O)cc3)cc2)C1"
Reply: > 100 µM

Query: Query CC(C)c1ccc2c(c1)CCC1C(C)(CN)CCCC21C (stereo not drawn) next
Reply: 2.89 µM

Query: Request: "O=C(Nn1c(-c2ccccc2)nc2ccccc2c1=O)c1ccc([N+](=O)[O-])cc1"
Reply: > 100 µM

Query: And then "CN(CCNc1ccc(C(=N)N)cc1)c1ccc(C(=N)N)cc1" , what is it?
Reply: > 100 µM

Query: Entry "Cc1cccc2c1NC(=O)[C@@H](NC(=O)[C@H](CCC(F)(F)F)[C@H](CCC(F)(F)F)C(N)=O)N=C2c1cccc(F)c1" please
Reply: > 100 µM

Query: Moving on to the next molecule: "CCOC(=O)Nc1ccc2c3c(cccc13)-c1ccccc1-2"
Reply: 3.54 µM

Query: Thanks! And "O=c1cc(CN2CCCCC2)[nH]c2c1ccc1nc(CN3CCCCC3)cc(=O)n12" ?
Reply: > 100 µM

Query: Entry "CCOC(=O)c1ccc(N(C)Cc2cnc3nc(N)nc(N)c3n2)cc1" please
Reply: > 100 µM

Query: Check "C=CC(C)(C)c1c(OC)oc2ccc(OC)c(C)c2c1=O" too.
Reply: > 100 µM

Query: Let us now turn to "Cc1ccc([N+](=O)[O-])cc1S(=O)(=O)Nc1ccc(C(=O)/C=C/c2ccccc2)cc1"
Reply: 36.6 µM

Query: Another molecule to look at: "CCOc1ccc(-n2c(=O)c3nn4c(=O)n(-c5ccc(OCC)cc5)c(=O)c4nn3c2=O)cc1"
Reply: > 100 µM

Query: Same thing, different molecule: "O=c1[nH]ncc2[nH]c(-c3ccccc3)cc12"
Reply: > 100 µM

Query: Proceed to "COc1cc(S(=O)(=O)Nc2ccc(-c3csc(/N=C\c4ccccc4O)n3)cc2)ccc1Cl"
Reply: > 100 µM

Query: What do you have for "N#C/C(=C\c1ccc([N+](=O)[O-])cc1)n1nnc2cc(F)c(F)cc21" ?
Reply: 5.85 µM

Query: Also "O=C1/C(=C\c2ccc(Cl)cc2)CN(C(=O)c2ccccc2)C/C1=C\c1ccc(Cl)cc1" , if possible.
Reply: 8.04 µM

Query: Then "COc1cc2c(OC)c3cc(C)oc(=O)c3c(O)c2c(O)c1-c1c(OC)cc2c(OC)c3cc(C)oc(=O)c3c(O)c2c1O" ?
Reply: 33.9 µM

----------
# Test system: MALME-3M melanoma
# Experiment Description: NCI tumour cell line growth inhibition, 48 h
Observable: TGI

Query: # query: TGI of entry "CCOC(=O)Cc1csc(Nc2nc(O)c(C3=c4ccccc4=NC3=O)s2)n1"
Reply: 78.4 µM

Query: Let us now turn to "COC(=O)Nc1nc2ccc(C(=O)C3CC3)cc2[nH]1"
Reply: > 100 µM

Query: Another compound: "COc1ccc(-c2nc(Nc3ccc(F)cc3)nc(Nc3ccc4c(c3)nc(C)n4Cc3ccccc3)n2)cc1"
Reply: > 100 µM

Query: Continue with "CCN1C2=C(SC(=S)C1=C1SC(C(=O)c3ccccc3)=C(C(=O)c3ccccc3)S1)SC(=Nc1ccccc1)C2=O"
Reply: > 100 µM

Query: Ok, now "Cc1cc2c(cc1C)[n+](=O)c(C(=O)CC(=O)C(=O)Nc1ccccc1C)c(C)n2[O-]"
Reply: > 100 µM

Query: Next compound up: "O=C(CC(O)(C(F)(F)Cl)C(F)(F)Cl)CC(O)(C(F)(F)Cl)C(F)(F)Cl"
Reply: 4.36 µM

Query: Now give it for O=C(OC1C#CCSCC#C/C=C\1)c1cnc2ccccc2n1 (stereo not drawn) too.
Reply: > 100 µM

Query: Try this compound too: "Cc1cc2c(=O)cc(-c3ccc(Cl)cc3Cl)oc2c(C(=O)O)c1C"
Reply: > 100 µM

Query: Similarly, "Cc1ccc(C)n1-n1c(Cc2ccc(Cl)cc2)n[nH]c1=O" ?
Reply: > 100 µM

Query: Check N#CCC(=O)N/N=C(/C(=O)Nc1ccccc1)C1C(=O)N(c2ccccc2)N=C1N (stereo not drawn) too.
Reply: > 100 µM

Query: Could you do the same for COC(=O)C(=O)C(C(=O)C(=O)Nc1ccccc1C(N)=O)c1nc2ccc([N+](=O)[O-])cc2[nH]c1=O (stereo not drawn) , please?
Reply: > 100 µM

Query: Also check "Cc1cc(C)c2c(=O)cc(-c3ccccc3)[nH]c2c1"
Reply: > 80.4 µM

Query: And what about the compound "CCOC(=O)Nc1nc(-c2ccccc2)c(C)s1" ?
Reply: > 100 µM
